# Experimental target: Tyrosine-protein kinase JAK1 (Homo sapiens) (UniProt P23458)
# Sequence (P23458 whole entry): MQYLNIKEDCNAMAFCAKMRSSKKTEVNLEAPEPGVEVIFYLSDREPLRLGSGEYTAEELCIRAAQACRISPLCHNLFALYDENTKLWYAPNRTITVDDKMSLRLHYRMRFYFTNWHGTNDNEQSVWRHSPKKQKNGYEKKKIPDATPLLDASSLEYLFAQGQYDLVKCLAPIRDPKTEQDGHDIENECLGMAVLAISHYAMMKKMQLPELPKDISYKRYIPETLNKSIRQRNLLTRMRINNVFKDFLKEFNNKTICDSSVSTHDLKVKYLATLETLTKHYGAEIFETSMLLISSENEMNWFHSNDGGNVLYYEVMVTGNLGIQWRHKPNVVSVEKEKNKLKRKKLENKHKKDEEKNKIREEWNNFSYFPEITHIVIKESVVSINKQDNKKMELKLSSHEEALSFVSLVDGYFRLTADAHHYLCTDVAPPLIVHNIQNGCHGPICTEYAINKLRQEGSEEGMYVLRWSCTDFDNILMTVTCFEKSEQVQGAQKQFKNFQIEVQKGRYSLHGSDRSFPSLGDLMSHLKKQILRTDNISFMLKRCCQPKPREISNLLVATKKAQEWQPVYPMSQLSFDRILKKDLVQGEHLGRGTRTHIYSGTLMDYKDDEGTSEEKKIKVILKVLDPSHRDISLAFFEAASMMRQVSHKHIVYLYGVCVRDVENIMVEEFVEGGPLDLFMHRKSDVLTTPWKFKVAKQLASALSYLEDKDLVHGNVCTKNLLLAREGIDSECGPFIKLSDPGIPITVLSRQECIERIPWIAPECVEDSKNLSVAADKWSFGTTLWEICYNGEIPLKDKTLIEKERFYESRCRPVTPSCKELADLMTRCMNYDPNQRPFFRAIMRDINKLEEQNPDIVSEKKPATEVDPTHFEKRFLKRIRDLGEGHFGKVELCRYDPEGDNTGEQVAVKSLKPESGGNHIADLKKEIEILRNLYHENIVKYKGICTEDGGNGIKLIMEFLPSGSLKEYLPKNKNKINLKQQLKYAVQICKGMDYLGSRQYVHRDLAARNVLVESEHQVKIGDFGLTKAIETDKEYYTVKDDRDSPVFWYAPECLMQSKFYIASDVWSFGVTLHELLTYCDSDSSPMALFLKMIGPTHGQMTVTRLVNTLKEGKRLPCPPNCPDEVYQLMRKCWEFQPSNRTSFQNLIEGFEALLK
# Condition notes: at 0.1 µM
# Description: GSK_PKIS: JAK1 mean inhibition at 0.1 uM [Nanosyn]
Please respond with reported inhibition for every item in the list.
Write the number in % without appending the unit.

Identify measured inhibition associated with COc1cccc(Nc2nccc(-c3cnn4ncccc34)n2)c1
-0.13

Look up inhibition of COc1ccccc1-c1cc(/C=C2\C(=O)Nc3ncc(Br)cc32)cc(Br)c1O and report it.
2.55

Tell us which inhibition value is on record for c1cnn2ncc(-c3ccnc(NCCCN4CCOCC4)n3)c2c1
2.8

Please give the documented inhibition of Cc1cc(O)cc(C)c1/C=C/c1cncc(C(N)=O)c1
-0.72

For the compound CC1(C)CC(n2cnc(-c3ccc(F)cc3)c2-c2ccnc(N)n2)CC(C)(C)N1 , report inhibition.
-2.83

Answer with the recorded inhibition for the compound listed here: COc1cc(Nc2ncc(-c3ccccc3)o2)cc(OC)c1
-0.99

Assign inhibition to the following record: Fc1cccc(COc2ccc(Nc3ncncc3C#Cc3ccccc3)cc2Cl)c1
2.37

Find the measured inhibition of c1ccc(-c2n[nH]cc2-c2ccnc(-c3ccc(OCCn4ccnc4)cc3)c2)nc1 and report it.
0.34

Given CN(c1ccc(NC(=O)NCCN2CCOCC2)cc1)c1ccnc(Nc2ccc(CS(C)(=O)=O)cc2)n1 , respond with its inhibition.
3.28

Provide inhibition value for the following compound: CCn1c(-c2nonc2N)nc2cncc(C(=O)NCCNC)c21
0.48

Specify reported inhibition for the compound shown: CN(C)CCNC(=O)Nc1ccc(N(C)c2ccnc(Nc3ccc(CS(C)(=O)=O)cc3)n2)cc1
3.89

Could you please provide reported inhibition for CNC(=O)c1ncccc1Nc1nc(Nc2cc3c(cc2OC)CCCN3C(=O)CN(C)C)nc2[nH]ccc12 ? Thanks!
4.62

Answer with reported inhibition of Cc1c2ccc(N(C)c3ccnc(Nc4cccc(S(N)(=O)=O)c4)n3)cc2nn1C
1.56

Answer with the recorded inhibition for the compound listed here: O=C(O[C@H]1CN[C@H](C#Cc2cc3ncnc(Nc4ccc(OCc5cccc(F)c5)c(Cl)c4)c3s2)C1)N1CCOCC1
5.13

Give the measured inhibition for CS(=O)(=O)Nc1ccc(-c2cc(-c3ccccc3)cc(C(N)=O)c2N)cc1
0.16

Return inhibition (reported value) for this compound: COc1cc(N2CCN(C(C)C)CC2)ccc1Nc1nc(Nc2cccc3ncccc23)c2cc[nH]c2n1
-1.68

---

# Experimental target: Tyrosine-protein kinase Yes (Homo sapiens) (UniProt P07947);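 further: values are mean percent inhibition of YES kinase activity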
# Sequence (P07947 2-543 limits assumed): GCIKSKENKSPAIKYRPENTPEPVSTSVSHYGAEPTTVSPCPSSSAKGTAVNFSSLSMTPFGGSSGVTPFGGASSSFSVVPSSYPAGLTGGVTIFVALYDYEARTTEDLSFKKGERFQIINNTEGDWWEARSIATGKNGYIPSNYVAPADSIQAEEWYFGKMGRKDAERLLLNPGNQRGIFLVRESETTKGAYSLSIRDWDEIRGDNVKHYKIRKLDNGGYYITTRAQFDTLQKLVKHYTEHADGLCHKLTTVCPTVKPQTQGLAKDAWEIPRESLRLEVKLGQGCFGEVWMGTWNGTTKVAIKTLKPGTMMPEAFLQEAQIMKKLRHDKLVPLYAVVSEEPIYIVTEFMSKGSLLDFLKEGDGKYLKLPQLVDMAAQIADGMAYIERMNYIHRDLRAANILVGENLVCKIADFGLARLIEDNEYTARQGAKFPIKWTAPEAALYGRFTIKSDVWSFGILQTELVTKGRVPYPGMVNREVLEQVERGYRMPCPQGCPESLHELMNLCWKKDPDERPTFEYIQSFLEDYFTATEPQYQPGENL
# Condition notes: at 1 µM
The threshold is inclusive: inhibition of exactly 8% counts as Fulfilled; values below receive Not fulfilled.

Tell me whether inhibition is at least 8% here: COc1c(C(N)=O)cc(-c2ccc(Cl)cc2)cc1-c1ccc(S(N)(=O)=O)cc1
Not fulfilled

Form field: inhibition at least 8%? Entry: CN(c1ccc(NC(=O)NCCN2CCOCC2)cc1)c1ccnc(Nc2ccc(CS(C)(=O)=O)cc2)n1
Fulfilled

Is inhibition for Cc1cc(O)cc(C)c1/C=C/c1cncc(C(=O)OC(C)(C)C)c1 at or above 8%?
Fulfilled

hey, is inhibition for this one >= 8%? COc1cc2c(cc1Nc1nc(Nc3cccc(F)c3C(N)=O)c3cc[nH]c3n1)N(C(=O)CN1CCN(C(C)C)CC1)CC2
Not fulfilled

Assess whether reported inhibition for Cc1nnc(-c2cccc(-c3ccc(C(=O)NCC4CC4)cc3)c2)o1 sits at 8% or higher.
Not fulfilled

---

# Experimental target: Tyrosine-protein kinase Fer (Homo sapiens) (UniProt P16591);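 further: reported figures are averaged percent inhibition of FER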
# Sequence (P16591 whole entry, looked up): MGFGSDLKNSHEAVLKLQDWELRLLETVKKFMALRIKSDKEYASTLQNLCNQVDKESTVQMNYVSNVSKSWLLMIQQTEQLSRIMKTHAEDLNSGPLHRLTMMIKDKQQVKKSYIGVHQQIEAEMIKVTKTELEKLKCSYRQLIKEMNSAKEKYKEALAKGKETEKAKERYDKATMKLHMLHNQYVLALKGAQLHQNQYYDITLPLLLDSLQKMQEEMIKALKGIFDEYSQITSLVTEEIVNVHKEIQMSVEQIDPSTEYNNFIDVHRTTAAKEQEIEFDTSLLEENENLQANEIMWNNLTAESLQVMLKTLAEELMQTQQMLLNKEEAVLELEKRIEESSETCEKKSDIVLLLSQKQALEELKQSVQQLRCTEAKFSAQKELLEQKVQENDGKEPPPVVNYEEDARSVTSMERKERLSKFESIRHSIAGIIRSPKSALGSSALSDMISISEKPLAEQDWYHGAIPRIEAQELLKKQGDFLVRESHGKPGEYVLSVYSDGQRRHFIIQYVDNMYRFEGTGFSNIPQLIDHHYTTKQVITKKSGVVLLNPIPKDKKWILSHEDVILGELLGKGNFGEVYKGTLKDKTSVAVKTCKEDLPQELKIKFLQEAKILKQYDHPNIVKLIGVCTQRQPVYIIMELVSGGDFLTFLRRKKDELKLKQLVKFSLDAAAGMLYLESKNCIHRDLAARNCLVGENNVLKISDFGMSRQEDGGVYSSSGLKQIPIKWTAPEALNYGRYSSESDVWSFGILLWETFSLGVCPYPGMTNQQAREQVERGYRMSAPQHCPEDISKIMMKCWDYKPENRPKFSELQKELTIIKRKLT
# Condition notes: at 0.1 µM
Provide the reported inhibition of each item.
Dear colleague, please return just the value in %, with no unit written.

Respond only with inhibition recorded for CCn1c(-c2nonc2N)nc2cncc(C(=O)NCCNC)c21
4.13

Quickly give me recorded inhibition for O=C(O[C@H]1CN[C@H](C#Cc2cc3ncnc(Nc4ccc5c(ccn5Cc5cc(F)ccc5F)c4)c3s2)C1)N1CCOCC1
1.31

Provide one value: measured inhibition of N#Cc1ccc2c(-c3ccnc(NC4CC4)n3)c(-c3ccc(F)cc3)nn2c1
-2.41

Tell me inhibition reported for NC(=O)c1ccc2c(-c3ccnc(NCCCO)n3)c(-c3ccc(F)cc3)nn2c1
6.31

State, in one line, measured inhibition of OCCCNc1nccc(-c2c(-c3ccc(F)cc3)nn3cc(C(F)(F)F)ccc23)n1
1.98

Give me measured inhibition, please, for this compound: CN(C)CCNC(=O)Nc1ccc(N(C)c2ccnc(Nc3ccc(CS(C)(=O)=O)cc3)n2)cc1
4.17

Please supply the value of reported inhibition for the item c1cnn2ncc(-c3ccnc(NCCCN4CCOCC4)n3)c2c1
0.82

Give inhibition for the following compound: O=C(O[C@H]1CN[C@H](C#Cc2cc3ncnc(Nc4ccc5c(cnn5Cc5ccccc5)c4)c3s2)C1)N1CCOCC1
-0.71

Consider the compound Cc1ccc(-c2cc3c(NC(=O)C4CC4)ncnc3o2)cc1 . State its measured inhibition.
8.51

Return inhibition (reported value) for this compound: CCOc1ccc2c(-c3ccnc(Nc4cc(OC)cc(C(F)(F)F)c4)n3)cnn2n1
2.36

Please give the documented inhibition of COc1cccc(Nc2nccc(-c3cnn4ncccc34)n2)c1
9.45

Report measured inhibition; entry is CS(=O)(=O)CCNCc1ccc(-c2ccc3ncnc(Nc4ccc(OCc5ccccc5)cc4)c3c2)o1
1.45

Identify inhibition associated with the compound CNC(=O)c1cncc(/C=C/c2ccccc2C)c1
4.15

Output measured inhibition for this item: O=C(O[C@H]1CN[C@H](C#Cc2cc3ncnc(Nc4ccc(OCc5cccc(F)c5)c(Cl)c4)c3s2)C1)N1CCOCC1
5.92

Return value of inhibition for input CC1=C(C(=O)Nc2ccc3[nH]nc(C)c3c2)C(c2ccc(C(F)(F)F)cc2)CC(=O)N1 (stereo unspecified) , no commentary.
1.26

Determine its reported inhibition: COc1cccc(-n2ncc3c(N/N=C/c4ccc(C(=O)NCCN(C)C)cc4)ncnc32)c1
3.03

State its inhibition: CC1=C(C(=O)Nc2ccc3[nH]ncc3c2)C(c2ccc(F)cc2)N=C(c2ccc(C(F)(F)F)nc2)N1 (stereo unspecified)
0.93

Identify measured inhibition associated with COc1ccc2ncn(-c3cc(O[C@H](C)c4ccccc4C(F)(F)F)c(C(N)=O)s3)c2c1
1.06

Specify reported inhibition for the compound shown: CS(=O)(=O)CCNCc1ccoc1-c1ccc2ncnc(Nc3ccc(OCc4ccccc4)cc3)c2c1
-0.1

Give the reported inhibition for this compound. NS(=O)(=O)c1ccc(N/N=C2\C(=O)Nc3cccc(CCc4ccncc4)c32)cc1
4.04

Give a short answer stating reported inhibition for COc1ccccc1-c1cc(/C=C2\C(=O)Nc3ncc(Br)cc32)cc(Br)c1O .
1.71

For the compound NS(=O)(=O)c1ccc(N/N=C2\C(=O)Nc3ccc(C(=O)NCc4ccncc4)cc32)cc1 , report inhibition.
2.36

Identify the reported inhibition for the following entry. Fc1ccc(Nc2nccc(-c3c(-c4ccc(C(F)(F)F)cc4)nn4ncccc34)n2)cc1F
4.97

Name the recorded inhibition of the item CNC(=O)c1ncccc1Nc1nc(Nc2cc3c(cc2OC)CCCN3C(=O)CN(C)C)nc2[nH]ccc12 in your answer.
71.3

Read the entry CN(c1ccc(NC(=O)NCCN2CCOCC2)cc1)c1ccnc(Nc2ccc(CS(C)(=O)=O)cc2)n1 and write its reported inhibition.
3.77

Provide one value: measured inhibition of COc1cc(N2CCN(C(C)C)CC2)ccc1Nc1nc(Nc2cccc(F)c2C(=O)O)c2cc[nH]c2n1
32.5

Give the reported value of inhibition for this record: FC(F)(F)CNc1nccc(-c2cnn3ncccc23)n1
1.02

Please look at this compound and report its inhibition: O=C(Nc1n[nH]c2nnc(-c3cccnc3)cc12)C1CC1
-1.4

Read off the recorded inhibition for CS(=O)(=O)Nc1ccc(-c2cc(-c3ccccc3)cc(C(N)=O)c2N)cc1
-2.85

Annotate the compound CS(=O)(=O)Nc1ccc(-c2ccc3c(NC(=O)C4CC4)n[nH]c3c2)cc1 with its measured inhibition.
9.81

In one line, give reported inhibition of the entry CCS(=O)(=O)c1ccc(OC)c(Nc2ncc(-c3cccc(F)c3)o2)c1 .
2.32

Output inhibition of CN1CCC(n2cnc(-c3ccc(F)cc3)c2-c2ccnc(NCCO)n2)CC1
7.03

Determine from records and report inhibition for Cc1cc(O)cc(C)c1/C=C/c1cncc(C(N)=O)c1
2

Check the records and state inhibition for CCS(=O)(=O)c1ccc(OC)c(Nc2ncc(-c3cccc(C(C)=O)c3)o2)c1
1.02

Report inhibition, nothing else, for this compound: CCCNc1cccc(-n2ncc3c(N/N=C/c4ccncc4)ncnc32)c1
-0.72

Please list inhibition recorded for the compound COc1cc(N2CCN(C(C)C)CC2)ccc1Nc1nc(Nc2cccc3ncccc23)c2cc[nH]c2n1
7.7

Please give measured inhibition of the following entry: CC1(C)CC(n2cnc(-c3ccc(F)cc3)c2-c2ccnc(N)n2)CC(C)(C)N1
3.41

Return inhibition for the following compound: NS(=O)(=O)c1cccc(N/C=C2\C(=O)Nc3ccccc32)c1
3.91

Report measured inhibition; entry is Cc1cc(O)cc(C)c1/C=C/c1cncc(C(=O)OC(C)(C)C)c1
4.09

Answer with the recorded inhibition for the compound listed here: Cc1c2ccc(N(C)c3ccnc(Nc4cccc(S(N)(=O)=O)c4)n3)cc2nn1C
25.1

Check the records and state inhibition for COc1cc(Nc2ncc(-c3ccccc3)o2)cc(OC)c1
0.58
